tested on: MCF7 cells; test: TCA metabolite profiling by LC/MS in MCF7; assay type: cell-based, human; settings: Homo sapiens, MCF7, MCF7; 1 DT; single experiment; read-out: EC50 α-ketoglutarate
MEASURED QUANTITY: EC50 (nM)
Answer format: numeric, nM implied, no suffix.

Complete the entry with EC50 for `CCN1CCN(Cc2ccc(Nc3ncc(F)c(-c4cc(F)c5nc(C)n(C(C)C)c5c4)n3)nc2)CC1`
370

###

test system: MCF7 cells; assay: PI high content imaging of G1 arrest and cell proliferation, MCF7; assay type: cell-based; conditions: Homo sapiens, n = 2, read-out: IC50 Cell number
MEASURED QUANTITY: IC50 (µM)
Answer format: numeric, µM implied, no suffix.

Complete the entry with IC50 for `CCN1CCN(Cc2ccc(Nc3ncc(F)c(-c4cc(F)c5nc(C)n(C(C)C)c5c4)n3)nc2)CC1`
0.369
